This collection of values is drawn from paper PMC5540273.

Task for the reader: assign each of the following compounds its reported %Inh.
System: PIK3CB
condition-parameters: concentration: 1 μM, replicates: in singlicate; n = 1;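 further: KINOMEscan kinase panel screen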

# example entries with known answers
compound: COc1cc2ncnc(Nc3ccc4nc(-c5ccccc5)[nH]c4c3)c2cc1OC.Cl [GW282450]
tgt: PIK3CB
%Inh: 0%

compound: CN1C(=O)C(Nc2ccc(Cl)c(C(=O)O)c2)=C(c2ccc(Cl)cc2)C1=O [SB-404290]
tgt: PIK3CB
%Inh: 0%

compound: NC(=O)c1nnc2ccccc2c1N
tgt: PIK3CB
%Inh: 0%

compound: Nc1nc(-c2nccs2)c(-c2ccnc3ccccc23)s1 [GW693542]
tgt: PIK3CB
%Inh: 0%

compound: CC(C)(C)c1ccc(C(=O)Nc2cn3cc(-c4cccnc4)ccc3n2)cc1
tgt: PIK3CB
%Inh: 45%

Turning to the following compound.
Given the entry CC1=C(C(=O)Nc2cc3cn[nH]c3cc2F)C(c2ccc(C(F)(F)F)cc2)CC(=O)N1 (stereo not drawn) [GSK429286] , report its measured %Inh.
0%

====

Tested on: RIOK3
condition-parameters: concentration: 1 μM, replicates: in singlicate; n = 1
recorded-endpoint: %Inh (%)
Answers are plain numbers, in %.

# example entries with known answers
compound: Fc1cc(Cl)ccc1Nc1ccnc2cc(I)ccc12
tgt: RIOK3
%Inh / %: 19

compound: Cc1nnc(-c2ccc3occ(-c4ccc(S(C)=O)cc4)c3c2)[nH]1 (stereo not shown)
tgt: RIOK3
%Inh / %: 0

compound: Cc1cccc(-c2nc(C)cc(Nc3ccncc3)n2)n1
tgt: RIOK3
%Inh / %: 14

Report %Inh for each item below.
1. Cc1cc(NCC(c2ccccc2)c2ccccc2)nc(NCc2ccc(C(F)(F)F)cc2)n1
2. CCCc1ccc(S(=O)(=O)NC2CCN(c3ccnc(Nc4ccc(F)cc4)n3)C2)cc1 (stereo not shown)
3. CN1C(=O)C(Nc2ccc(Cl)c(C(=O)O)c2)=C(c2ccc(Cl)cc2)C1=O
4. CC(C)(C)c1ccc(C(=O)Nc2cn3cc(Cl)ccc3n2)cc1
5. C[C@@H]1CCCCN1c1cc(-c2ccc3c(N)n[nH]c3c2)nc(N)n1
6. COC(=O)c1c(-c2ccccc2)c2cc(C(=O)O)ccc2c(=O)n1Cc1ccccc1
7. COc1ccccc1CNC(=O)c1cc(C(=O)c2ccccc2C)c[nH]1

9
0
18
0
19
11
1

====

System: EPHB3
condition-parameters: concentration: 1 μM, replicates: in singlicate; n = 1
recorded-endpoint: %Inh (%)
Numbers only, in %.

# example entries with known answers
query-smiles: Cc1ccc(C(=O)Nc2ccc(Nc3ccnc4cc(-c5ccccn5)ccc34)cc2O)cc1.Cl
unit-annotation: %
%Inh: 0
--
query-smiles: COc1ccc(C2=C(Nc3cccc(C(=O)O)c3)C(=O)NC2=O)cc1
unit-annotation: %
%Inh: 20
--
query-smiles: COc1cccc(-c2cc(-c3c[nH]nc3-c3ccccn3)ccn2)c1
unit-annotation: %
%Inh: 2
--
query-smiles: CC(C)(C)c1ccc(C(=O)Nc2cn3cc(-c4cccnc4)ccc3n2)cc1
unit-annotation: %
%Inh: 26
--
query-smiles: Cc1csc(-c2nc(Nc3ccncc3)c3ccccc3n2)n1
unit-annotation: %
%Inh: 9
--
query-smiles: Nc1ncnc2[nH]c(-c3ccccc3)nc12
unit-annotation: %
%Inh: 16
--
query-smiles: Clc1cc(Cl)cc(Nc2ccnc(Nc3cc(Cl)cc(Cl)c3)n2)c1
unit-annotation: %
%Inh: 10
--
query-smiles: Cl.c1ccc(-c2n[nH]cc2-c2ccnc(-c3ccc(CN4CCOCC4)cc3)c2)nc1
unit-annotation: %
%Inh: 13

Turning to the following compound.
Notebook: pull reported %Inh for EPHB3, entry "COc1ccc2nc(-c3cccc(C)n3)nc(Nc3ccncc3)c2c1"
14

====

System: MARK2
condition-parameters: concentration: 1 μM, replicates: in singlicate; n = 1
Task for the reader: assign each of the following molecules its reported %Inh.
Give bare numbers, in %.

# example entries with known answers
molecule: CS(=O)(=O)c1ccc(-c2nc3n(c2-c2ccncc2)CCC3)cc1
unit-annotation: %
%Inh: 0
//
molecule: COc1cc(Nc2nccc(N3CCC(NC(=O)Nc4cc(C)ccc4C)C3)n2)cc(OC)c1OC (centres unmarked)
unit-annotation: %
%Inh: 0
//
molecule: COc1cc2ncnc(Nc3ccc4nc(-c5ccccc5)[nH]c4c3)c2cc1OC.Cl
unit-annotation: %
%Inh: 0

Report %Inh for each item below.
1. Cl.c1ccc(-c2n[nH]cc2-c2ccnc(-c3ccc(CN4CCOCC4)cc3)c2)nc1
2. CCn1c(-c2ccccn2)nc2cnccc21

6
0

====

Tested on: JNK3
Construct: gene MAPK10
condition-parameters: concentration: 1 μM, replicates: in singlicate; n = 1
recorded-endpoint: %Inh (%)
Answers are plain numbers, in %.

# example entries with known answers
query-smiles: Cc1ccc(C(=O)Nc2ccc(Nc3ccnc4cc(-c5ccccn5)ccc34)cc2O)cc1.Cl
unit-annotation: %
%Inh: 0
--
query-smiles: COc1cc2nccc(Nc3ccc(NC(=O)c4ccc(C)cc4)c(O)c3)c2cc1OC.Cl
unit-annotation: %
%Inh: 7
--
query-smiles: COc1ccc2nc(-c3cccc(C)n3)nc(Nc3ccncc3)c2c1
unit-annotation: %
%Inh: 36

Turning to the following molecule.
Notebook: pull reported %Inh for JNK3, entry "Cc1cc(NCC(c2ccccc2)c2ccccc2)nc(NCc2ccc(C(F)(F)F)cc2)n1"
0

====

Test system: PCTK2
Construct: gene CDK17
condition-parameters: concentration: 1 μM, replicates: in singlicate; n = 1
recorded-endpoint: %Inh (%)
Numbers only, in %.

# example entries with known answers
query-smiles: COc1ccc(Nc2nccc(-c3cccc(NC(=O)c4cc5cc(F)ccc5[nH]4)c3)n2)cc1
reported: 18
--
query-smiles: Cl.O=C(Nc1cccc(-c2nn3ncccc3c2-c2ccnc(Nc3cccnc3)n2)c1)c1c(F)cccc1F
reported: 0
--
query-smiles: Cc1cc(-c2ccc3c(c2)CC[C@@H](N[C@@H](C)c2ccccc2)C3)cnc1N.Cl
reported: 0
--
query-smiles: Cc1csc(-c2nc(Nc3ccncc3)c3ccccc3n2)n1
reported: 0
--
query-smiles: Clc1cc(Cl)cc(Nc2ccnc(Nc3cc(Cl)cc(Cl)c3)n2)c1
reported: 19
--
query-smiles: CS(=O)(=O)c1ccc(-c2nc3n(c2-c2ccncc2)CCC3)cc1
reported: 0

Report %Inh for each item below.
1. Cc1ccccc1-n1cnc2c(N)ncnc21
2. Cc1ccc(NC(=O)Nc2cccc(Cl)c2)cc1-c1ccc(C(=O)Nc2ccncc2)cc1

0
0

====

Test system: CTK
Construct: gene MATK
condition-parameters: concentration: 1 μM, replicates: in singlicate; n = 1
Task for the reader: assign each of the following compounds its reported %Inh.

# example entries with known answers
query-smiles: Clc1cc(Cl)cc(Nc2ccnc(Nc3cc(Cl)cc(Cl)c3)n2)c1
%Inh: 0%

query-smiles: CS(=O)(=O)c1ccc(-c2c(-c3ncn[nH]3)sc(N3CCOCC3)c2C#N)cc1
%Inh: 26%

query-smiles: COc1ccccc1-c1ccc2c(NC(=O)C3CC3)n[nH]c2n1
%Inh: 0%

query-smiles: Cc1cccc(-c2nc(Nc3ccc4[nH]ncc4c3)c3ccccc3n2)n1
%Inh: 18%

Turning to the following compound.
Given the entry "COc1cc2ncnc(Nc3ccc4nc(-c5ccccc5)[nH]c4c3)c2cc1OC.Cl" , report its measured %Inh.
0%

====

System: WEE2
condition-parameters: concentration: 1 μM, replicates: in singlicate; n = 1
recorded-endpoint: %Inh (%)
One number for each entry, in %.

# example entries with known answers
query-smiles: Cc1cc(-c2ccc3c(c2)CC[C@@H](N[C@@H](C)c2ccccc2)C3)cnc1N.Cl
reported: 11

query-smiles: CC(C)(C)c1ccc(C(=O)Nc2cn3cc(Cl)ccc3n2)cc1
reported: 0

query-smiles: O=S(=O)(c1ccc(-c2ccnc3[nH]ccc23)cc1)N1CCCC1
reported: 2

query-smiles: Clc1cc(Cl)cc(Nc2ccnc(Nc3cc(Cl)cc(Cl)c3)n2)c1
reported: 0

Given the entry "Cc1cccc(-c2nc(Nc3cccc(C(N)=O)c3)c3ccccc3n2)n1" , report its measured %Inh.
9

====

System: PAK3
condition-parameters: concentration: 1 μM, replicates: in singlicate; n = 1
Task for the reader: assign each of the following molecules its reported %Inh.
Note to self: number, then unit, no commentary.

molecule: O=C(Nc1n[nH]c2cc(-c3cccc(F)c3F)ccc12)C1CC1
%Inh: 2%
--
molecule: Cc1cccc(-c2nc(Nc3ccncc3)c3ccccc3n2)n1
%Inh: 0%
--
molecule: Cc1cccc(-c2nc(Nc3cccc(C(N)=O)c3)c3ccccc3n2)n1
%Inh: 49%

Report %Inh for each item below.
1. COC(=O)c1c(-c2ccccc2)c2cc(C(=O)O)ccc2c(=O)n1Cc1ccccc1
2. CCCc1ccc(S(=O)(=O)NC2CCN(c3ccnc(Nc4ccc(F)cc4)n3)C2)cc1 (stereo not shown)

1. 0%
2. 3%

====

Tested on: EPHA6
condition-parameters: concentration: 1 μM, replicates: in singlicate; n = 1
recorded-endpoint: %Inh (%)
Numbers only, in %.

# example entries with known answers
compound: Cc1ccc(NC(=O)Nc2cc(C(C)(C)C)nn2-c2ccccc2)cc1 [GSK1014915]
reported: 28

compound: COc1cc2ncnc(Nc3ccc4nc(-c5ccccc5)[nH]c4c3)c2cc1OC.Cl [GW282450]
reported: 0

compound: Cn1ccc2ncnc(Oc3ccc(Nc4nc5ccccc5[nH]4)cc3)c21
reported: 4

compound: Cc1csc(-c2nc(Nc3ccncc3)c3ccccc3n2)n1 [GW869640]
reported: 6

compound: O=C1NC(=O)C(N2CCc3ccccc32)=C1c1ccccc1Cl [SB-373598]
reported: 18

Report %Inh for each item below.
1. Cc1cccc(-c2nc(Nc3cccc(C(N)=O)c3)c3ccccc3n2)n1 [GW876019]
2. CCCc1ccc(S(=O)(=O)NC2CCN(c3ccnc(Nc4ccc(F)cc4)n3)C2)cc1 (stereo not drawn) [GSK1379715]
3. CC1=C(C(=O)Nc2cc3cn[nH]c3cc2F)C(c2ccc(C(F)(F)F)cc2)CC(=O)N1 (stereo not drawn) [GSK429286]
4. COc1ccc(Nc2nccc(NCCNC(=O)Nc3ccccc3F)n2)cc1 [GSK1379901]

0
6
12
6
